Tested on: control shRNA and CDC37 shRNA stable transfected Hep3B
protocolDetails: Cell viability of control shRNA and CDC37 shRNA Hep3B
Assay type: cell-based, human
runParameters: read-out: IC50, mock transfected (control shRNA) Hep3B; control shRNA, 6 days of treatment
pIC50: −log10 of the molar value.
readoutKind: pIC50

compound="NCCO.O=C(Nc1ccc([N+](=O)[O-])cc1Cl)c1cc(Cl)ccc1O [NEN, niclosamide ethanolamine]" targetortestsystem="control shRNA and CDC37 shRNA stable transfected Hep3B" readoutkind=pIC50 reading=6.80

---

System: SNU-449
protocolDetails: Viability of HCC cell line SNU-449
Type: cell-based, human
runParameters: Homo sapiens, SNU-449, read-out: IC50 in HCC cell lines, SNU-449
pIC50: −log10 of the molar value.
readoutKind: pIC50

molecule="O=C(Nc1ccc([N+](=O)[O-])cc1Cl)c1cc(Cl)ccc1O [niclosamide]" targetortestsystem=SNU-449 reading=6.17

---

System: SNU-423
protocolDetails: Viability of HCC cell line SNU-423
Format: cell-based, human
runParameters: Homo sapiens, SNU-423, read-out: IC50 in HCC cell lines, SNU-423
readoutKind: IC50

compound="O=C(Nc1ccc([N+](=O)[O-])cc1Cl)c1cc(Cl)ccc1O [niclosamide]" readoutkind=IC50 reading="320 nM"

---

Tested on: SNU-182
protocolDetails: Viability of HCC cell line SNU-182
Format: cell-based, human
runParameters: Homo sapiens, SNU-182, read-out: IC50 in HCC cell lines, SNU-182
pIC50: −log10 of the molar value.
readoutKind: pIC50

molecule="O=C(Nc1ccc([N+](=O)[O-])cc1Cl)c1cc(Cl)ccc1O [niclosamide]" reading=6.44

---

System: control shRNA and CDC37 shRNA stable transfected Huh7
protocolDetails: Cell viability of control shRNA and CDC37 shRNA Huh7
Format: cell-based, human
runParameters: read-out: IC50, CDC37 knockdown Huh7; CDC37 shRNA, 6 days of treatment
readoutKind: IC50 (nM)

compound="NCCO.O=C(Nc1ccc([N+](=O)[O-])cc1Cl)c1cc(Cl)ccc1O [NEN, niclosamide ethanolamine]" targetortestsystem="control shRNA and CDC37 shRNA stable transfected Huh7" reading=930

---

Tested on: HepG2
protocolDetails: Viability of HCC cell line HepG2
Assay type: cell-based, human
runParameters: Homo sapiens, HepG2, read-out: IC50 in HCC cell lines, HepG2
pIC50: −log10 of the molar value.
readoutKind: pIC50

compound="O=C(Nc1ccc([N+](=O)[O-])cc1Cl)c1cc(Cl)ccc1O [niclosamide]" reading=6.07

---

Tested on: PLC/PRF/5
protocolDetails: Viability of HCC cell line PLC/PRF/5
Format: cell-based, human
runParameters: read-out: IC50 in HCC cell lines, PLC/PRF/5; viability, PLC/PRF/5
readoutKind: IC50 (nM)

compound="NCCO.O=C(Nc1ccc([N+](=O)[O-])cc1Cl)c1cc(Cl)ccc1O [NEN, niclosamide ethanolamine]" targetortestsystem=PLC/PRF/5 reading=530

---

Tested on: Huh7
protocolDetails: Viability of HCC cell line Huh7
Format: cell-based, human
runParameters: read-out: IC50 in HCC cell lines, Huh7; viability, Huh7
readoutKind: IC50 (nM)

compound="NCCO.O=C(Nc1ccc([N+](=O)[O-])cc1Cl)c1cc(Cl)ccc1O [NEN, niclosamide ethanolamine]" reading=630
